biological target: PKR(R510Q) (Homo sapiens, UniProt P30613, R510Q); assay: Luminescence Biochemical Assay (Kinase Glo Plus), PKR R510Q mutant; details: without FBP, read-out: AC50 LUM KGP woFBP AC50 μM gmean
Sequence (P30613 whole entry R510Q): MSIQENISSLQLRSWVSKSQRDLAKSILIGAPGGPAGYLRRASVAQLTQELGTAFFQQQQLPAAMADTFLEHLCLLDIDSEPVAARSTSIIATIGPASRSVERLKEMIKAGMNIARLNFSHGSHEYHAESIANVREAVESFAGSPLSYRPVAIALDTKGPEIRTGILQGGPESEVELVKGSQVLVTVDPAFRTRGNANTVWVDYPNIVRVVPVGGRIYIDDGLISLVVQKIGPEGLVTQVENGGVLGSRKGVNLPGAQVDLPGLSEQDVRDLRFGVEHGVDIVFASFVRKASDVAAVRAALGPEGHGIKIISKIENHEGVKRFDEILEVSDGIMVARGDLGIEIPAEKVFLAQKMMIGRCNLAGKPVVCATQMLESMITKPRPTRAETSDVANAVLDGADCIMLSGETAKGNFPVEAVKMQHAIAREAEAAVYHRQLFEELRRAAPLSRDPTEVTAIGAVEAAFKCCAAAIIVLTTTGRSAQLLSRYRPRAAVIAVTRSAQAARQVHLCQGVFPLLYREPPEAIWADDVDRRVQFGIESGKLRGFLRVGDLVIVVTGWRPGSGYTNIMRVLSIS
Endpoint: AC50

These solved cases illustrate the format of a correct answer.
                                   compound  observed_measurement
0  Cc1cc(CNC(=O)N2CC3=C(C2)CN(S(=O)(=O)c2ccc4ncsc4c2)C3)on1           0.1 to 1 µM
1  O=C([C@H](O)c1ccccc1)N1CC2=C(C1)CN(S(=O)(=O)c1ccccn1)C2           0.1 to 1 µM
2  O=C([C@H](O)c1ccccc1)N1CC2=C(C1)CN(S(=O)(=O)c1ccc(C(F)(F)F)nc1)C2            1 to 40 µM
3  O=C([C@H](O)c1ccccc1)N1CC2=C(C1)CN(S(=O)(=O)c1ccc(C(F)(F)F)cc1)C2            1 to 40 µM
4  O=C(N1CCOCC1)N1CC2=C(C1)CN(S(=O)(=O)c1ccc3ncsc3c1)C2            1 to 40 µM
5  COc1ccc(CNC(=O)N2CC3=C(C2)CN(S(=O)(=O)c2cccc4cnccc24)C3)cc1              ≤ 0.1 µM

Problem: So what AC50 did "O=C([C@H](O)c1ccccc1)N1CC2=C(C1)CN(S(=O)(=O)c1cc(F)cc(F)c1)C2" get with PKR(R510Q) (Homo sapiens, UniProt P30613, R510Q)?
Result: 0.1 to 1 µM

###

The following molecules are shown together with reported Emax values.
target: PKR(wt) (Homo sapiens, UniProt P30613); assay: Luminescence Biochemical Assay (Kinase Glo Plus), wild type PKR; conditions: without FBP, read-out: AC50 LUM KGP woFBP MAX % FOLD mean
Sequence (P30613 whole entry): as the sequence (P30613 whole entry R510Q) above, with Q510R counted along it

Reference set (3 entries):
In [3]: df
Out[3]:
                           substance_smiles  observed_measurement
0  Cc1cc(COC(=O)N2CC3=C(C2)CN(S(=O)(=O)c2ccc(OC(F)F)cc2)C3)no1           250 to 500%
1  Cc1ccc(CC(=O)N2CC3=C(C2)CN(S(=O)(=O)c2ccc(OC(F)F)cc2)C3)cn1           250 to 500%
2  CC[C@@H](O)C(=O)N1CC2=C(C1)CN(S(=O)(=O)c1ccc3c(c1)N(C)CCO3)C2            75 to 250%

Problem: What value of Emax has been reported for the following molecule? "NCC1(C(=O)N2CC3=C(C2)CN(S(=O)(=O)c2ccc4occc4c2)C3)CC1"
Result: 75 to 250%

Problem: Quick one: Emax of "O=C(Cn1cnnn1)N1CC2=C(C1)CN(S(=O)(=O)c1ccc(OC(F)F)cc1)C2" ?
Result: 250 to 500%

###

target: PKR(R510Q) (Homo sapiens, UniProt P30613, R510Q); assay: Luminescence Biochemical Assay (Kinase Glo Plus), PKR R510Q mutant; details: without FBP, 1.54 μM compound, read-out: AC50 LUM KGP woFBP % Fold@1.54 μM mean
Endpoint: activation at 1.54 µM

                                   compound                                       tgt               endpoint  observed_measurement
0  COc1ccccc1CNC(=O)N1CC2=C(C1)CN(S(=O)(=O)c1ccc3ncsc3c1)C2 [Example 21-18]  PKR(R510Q) (Homo sapiens, UniProt P30613, R510Q)  activation at 1.54 µM         250 to 50000%

Problem: # input compound: COc1cccc(CNC(=O)N2CC3=C(C2)CN(S(=O)(=O)c2ccc4nsnc4c2)C3)c1 [Example 20-25] ; wanted: its activation at 1.54 µM
Result: 75 to 250%

Problem: Any idea what its activation at 1.54 µM is? The compound is O=C([C@H]1CCCO1)N1CC2=C(C1)CN(S(=O)(=O)c1cccnc1)C2 [Example 18-59]
Result: 75 to 250%

Problem: Need activation at 1.54 µM of O=C(Cn1cccn1)N1CC2=C(C1)CN(S(=O)(=O)c1ccc(OC(F)F)cc1)C2 [Example 18-21] , thanks.
Result: 75 to 250%

Problem: Look up activation at 1.54 µM: COc1ccccc1CNC(=O)N1CC2=C(C1)CN(S(=O)(=O)c1cccc3nonc13)C2 [Example 20-19]
Result: 75 to 250%

Problem: Given O=C([C@H](O)c1ccccc1)N1CC2=C(C1)CN(S(=O)(=O)c1ccc(F)cc1F)C2 [Example 18-18] , state its recorded activation at 1.54 µM.
Result: 250 to 50000%

Problem: Need activation at 1.54 µM, item O=C(C1OCCc2ccccc21)N1CC2=C(C1)CN(S(=O)(=O)c1ccc(OC(F)F)cc1)C2 (stereo not drawn) [Example 18-33]
Result: 75 to 250%

Problem: Query (compound): O=C([C@H](O)c1ccccc1)N1CC2=C(C1)CN(S(=O)(=O)c1cccc(OC(F)F)c1)C2 [Example 18-15] ; field requested: activation at 1.54 µM
Result: 250 to 50000%

Problem: # activation at 1.54 µM lookup, item O=C(C(O)c1ccc(F)c(F)c1)N1CC2=C(C1)CN(S(=O)(=O)c1ccc(OC(F)F)cc1)C2 (stereo not drawn) [Example 18-23]
Result: 250 to 50000%

Problem: What value of activation at 1.54 µM has been recorded for this entry: O=C(NCc1ccccc1F)N1CC2=C(C1)CN(S(=O)(=O)c1ccccn1)C2 [Example 21-42]
Result: 250 to 50000%
